Just for reference, paper PMC8951750 is where these values come from.

test system: SK-MEL-2 cells; assay: Soft agar assay, colony formation of cancer cells; assay type: cell-based, human; details: compound 0.1 µM, 14 days
Measured endpoint: decrease of colonies number of SK-MEL-2 cells (colony formation) (%)
Just the number in %, nothing appended.

| Compound | Observed |
| --- | --- |
| CC(=O)OC1CC2(C)C3=CCC4C(C)(C)C(OC5OCC(O)C(O)C5OC5OC(C)C(OC6OC(CO)C(O)C(O)C6O)C(O)C5OC5OCC(O)C(O)C5O)CCC4(C)C3CCC23C(=O)OC(C)(C=CC=C(C)C)C13 (stereo not shown) [Compound 5] | 13 |
| C=C(C)C1C2CC3(C)C4=CCC5C(C)(C)C(OC6OCC(O)C(O)C6OC6OC(C)C(OC7OC(CO)C(O)C(OC8OC(CO)C(O)C(OC)C8O)C7O)C(O)C6OC6OCC(O)C(O)C6O)CCC5(C)C4CCC13C(=O)O2 (stereo not shown) [Compound 7] | 15 |
| CC(=O)OC1CC2(C)C3=CCC4C(C)(C)C(OC5OCC(O)C(O)C5OC5OC(C)C(OC6OC(CO)C(O)C(O)C6O)C(O)C5OC5OCC(O)C(O)C5O)CCC4(C)C3CCC23C(=O)OC(C)(C=CC=C(C)C)C13 (stereo not shown) [Compound 2] | 3 |

Field: next compound
Could you tell me which decrease of colonies number of SK-MEL-2 cells (colony formation) is on file for COC1C(O)COC(OC2C(O)C(COS(=O)(=O)O)OC(OC3C(C)OC(OC4C(OC5CCC6(C)C7CCC89C(=O)OC(C)(C=CC=C(C)C)C8C(OC(C)=O)CC9(C)C7=CCC6C5(C)C)OCC(O)C4O)C(O)C3O)C2O)C1O (stereo not shown) [Compound 6] ?
40
